# Tested on: Mycobacterium tuberculosis
# procedure.text: Antimycobacterial activity against Mycobacterium tuberculosis after 24 hrs by MTT assay
# Assay type: functional, organism-based
pIC50: −log10 of the molar value.
outcome.measure: pIC50

[[record]]
compound = "CCCCCCCCCCCCc1cccc(C(=O)C2C=CN(CC(=O)OCC)C=C2C(N)=O)c1 (stereo unspecified)"
inequality_operator = "="
obs_value = 5.01

[[record]]
compound = "CCCCCCCCCCCCc1cccc(C2(O)NC(=O)c3c[n+](CC(=O)OCC)ccc32)c1 (stereo unspecified)"
inequality_operator = "="
obs_value = 4.41

[[record]]
compound = "CCCCCCCCc1cccc(C2(O)NC(=O)c3cnccc32)c1 (stereo unspecified)"
inequality_operator = "="
obs_value = 4.71

[[record]]
compound = "NNC(=O)c1ccncc1 [ISONIAZID]"
inequality_operator = ">"
obs_value = 6.52

[[record]]
compound = "CCCCCCCCCCCCc1cccc(C2(O)NC(=O)c3cnccc32)c1 (stereo unspecified)"
inequality_operator = "="
obs_value = 5.01

[[record]]
compound = "CCCCCCCCCCCCOc1cccc(C2(O)NC(=O)c3cnccc32)c1 (stereo unspecified)"
inequality_operator = "="
obs_value = 3.81


Every entry's value here was drawn from ChEMBL document CHEMBL1250492.
